System: RNA synthesis in HL-60 cells
Experiment: Inhibition of [5-3H]Cyd incorporation into RNA of HL-60 cells
Assay type: cell-based, human
Conditions: Homo sapiens, HL-60, 0.5 h, at 0.03 mg/mL; read-out: % Inhibition of Precursor Incorporation, RNA
Protocol: For the precursor incorporation studies, each compound (in 0.3% dimethylsulfoxide) was preincubated with HL-60 cells (a human promyelocytic leukemic cell line) 2.2×10^6 /ml, for 15 min prior to the addition of the labeled precursor (obtained from ICN Radiochemicals, Irvine, Calif.) and then incubated for 30 min. […] Incorporation of radioactivity in the absence of a plant compound and in the presence of dimethylsulfoxide was used as a control. […]
Could you please report measured inhibition at 30 µg/mL for the items listed next?
Give bare numbers, in %.

{"Compound": "COc1c(OC(C)=O)ccc2c(=O)c3c(O)cc(OC(C)=O)c(CC=C(C)C)c3n(C)c12", "Quantity Measured": "inhibition at 30 µg/mL", "Quantity Unit": "%", "Test Result": 96.1}
{"Compound": "COc1cc(O)cc2c1c(=O)c1ccccc1n2C [Compound 8, 1-Methoxy-3-Hydroxy N-methyl acridone]", "Quantity Measured": "inhibition at 30 µg/mL", "Quantity Unit": "%", "Test Result": 51.2}
{"Compound": "CC1(C)C=Cc2c(cc(O)c3c(=O)c4ccccc4[nH]c23)O1", "Quantity Measured": "inhibition at 30 µg/mL", "Quantity Unit": "%", "Test Result": 77.5}

Provide only the value of recorded inhibition at 30 µg/mL for "COc1cc(O)c2c(=O)c3ccc(OC)c(O)c3n(C)c2c1"
69.5
